// reported Dmax per item
# Study system: ERα (Homo sapiens, UniProt P03372)
# Sequence (P03372 whole entry): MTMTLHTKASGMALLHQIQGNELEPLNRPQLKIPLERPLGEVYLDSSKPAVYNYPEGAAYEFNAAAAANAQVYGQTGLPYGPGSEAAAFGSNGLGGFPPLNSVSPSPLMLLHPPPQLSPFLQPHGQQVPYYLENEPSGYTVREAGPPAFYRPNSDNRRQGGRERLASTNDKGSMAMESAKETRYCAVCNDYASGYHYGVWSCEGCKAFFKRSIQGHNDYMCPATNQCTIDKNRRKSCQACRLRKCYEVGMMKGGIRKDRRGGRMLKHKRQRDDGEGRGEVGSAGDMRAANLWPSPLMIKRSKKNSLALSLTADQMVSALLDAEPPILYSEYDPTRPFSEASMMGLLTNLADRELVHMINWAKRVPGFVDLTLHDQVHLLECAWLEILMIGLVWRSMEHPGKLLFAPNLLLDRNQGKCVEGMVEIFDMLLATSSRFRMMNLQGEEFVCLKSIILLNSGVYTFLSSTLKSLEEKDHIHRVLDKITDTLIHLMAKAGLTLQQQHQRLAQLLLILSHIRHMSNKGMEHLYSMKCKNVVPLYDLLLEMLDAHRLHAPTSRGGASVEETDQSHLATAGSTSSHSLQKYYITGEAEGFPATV
# Assay protocol: Estrogen receptor-alpha (ERα) degradation assay in MCF7 cells using In-Cell Western assay
# Assay type: cell-based
# Set-up: assessed for their activity in degrading ERα in MCF-7 cells via western blot; endogenous in cells; host or cells: MCF7 cells
# Condition: ER-alpha degradation in MCF7 cells, 5 days of incubation
Structures can show the parent of a compound that is named as a salt.

Example entries begin here.
# Molecule, Dmax
records = [
    ("O=C1CCC(N2C(=O)c3ccc(N4CCN(CC5CCN(c6ccc(Oc7c(-c8ccc(O)cc8)sc8cc(O)ccc78)cc6)CC5)CC4)cc3C2=O)C(=O)N1 (centres unmarked)", "50 to 75%"),
    ("O=C1CCC(N2Cc3cc(N4CCN(C5CCN(CCOc6ccc(Oc7c(-c8ccc(Br)cc8)sc8cc(O)ccc78)cc6)CC5)CC4)ccc3C2=O)C(=O)N1 (centres unmarked)", "> 75%"),
    ("O=C1CCC(N2C(=O)c3ccc(C4CCN(C5CCN(CCOc6ccc(Oc7c(-c8ccc(Br)cc8)sc8cc(O)ccc78)cc6)CC5)CC4)cc3C2=O)C(=O)N1 (centres unmarked) [Compound 190, Hydrochloride]", "50 to 75%"),
]

If you can, please state the reported Dmax value of COc1ccc(-c2sc3cc(O)ccc3c2Oc2ccc(N3CCC(CN4CCN(c5ccc6c(c5)C(=O)N(C5CCC(=O)NC5=O)C6=O)CC4)CC3)cc2)cc1 (centres unmarked) .
> 75%

If you can, please state the reported Dmax value of O=C1CCC(N2Cc3cc(NCCCOCCOCCOc4ccc(Oc5c(-c6ccc(Br)cc6)sc6cc(O)ccc56)cc4)ccc3C2=O)C(=O)N1 (centres unmarked) .
< 50%

If you can, please state the reported Dmax value of O=C1CCC(N2Cc3cc(N4CCN(CC5CCN(c6ccc(Oc7c(-c8ccc(Br)cc8)sc8cc(O)ccc78)cc6)CC5)CC4)ccc3C2=O)C(=O)N1 (centres unmarked) .
50 to 75%

* * *

# Study system: ERα (Homo sapiens, UniProt P03372)
# Assay protocol: ERE luciferase reporter gene assay in T47D-KBluc cells (target engagement)
# Assay type: cell-based
# Set-up: T47D human breast cancer cells stably transfected with estrogen responsive element/promoter/luciferase reporter gene; host or cells: T47D-KBluc cells
# Condition: 10% FBS, 24 hours, Table 1 cereblon centric PROTACs, read-out: ER-α Luciferase IC50
Assay readout: IC50 (nM)

Example entries begin here.
# Compound, Study system, Assay readout, Unit annotation, Assay value
measured = [
    ("O=C1CCC(N2C(=O)c3ccc(N4CCN(CCCCCCOc5ccc(Oc6c(-c7ccc(Br)cc7)sc7cc(O)ccc67)cc5)CC4)cc3C2=O)C(=O)N1 (stereo not drawn)", "ERα (Homo sapiens, UniProt P03372)", "IC50", "nM", 26.2),
    ("O=C(CN1CCN(CCOc2ccc(Oc3c(-c4ccc(Br)cc4)sc4cc(O)ccc34)cc2)CC1)NCc1ccc2c(c1)CN(C1CCC(=O)NC1=O)C2=O (stereo not drawn)", "ERα (Homo sapiens, UniProt P03372)", "IC50", "nM", 12.7),
    ("O=C1CC[C@@H](N2Cc3c(OCc4ccc(CN5CCN(CCOc6ccc(Oc7c(-c8ccc(Br)cc8)sc8cc(O)ccc78)cc6)CC5)nc4)cccc3C2=O)C(=O)N1", "ERα (Homo sapiens, UniProt P03372)", "IC50", "nM", 2.9),
]

P = O=C1CCC(N2C(=O)c3ccc(NCCC4CCN(CCOc5ccc(Oc6c(-c7ccc(Br)cc7)sc7cc(O)ccc67)cc5)CC4)cc3C2=O)C(=O)N1 (stereo not drawn)
Q = O=C1CC[C@@H](N2Cc3cc(OCCN4C[C@H]5C[C@@H]4CN5CCOc4ccc(Oc5c(-c6ccc(Br)cc6)sc6cc(O)ccc56)cc4)ccc3C2=O)C(=O)N1
// pick min by IC50: P , Q Choose, then provide that item's label.
Q
